System Name: T1, Nat1 (LTIITLE) (also: TFA salt)
T1 peptide: LTIITLE
Experiment: cell-based or functional assay
Non-standard residues stand in square brackets, D forms with d. No end group written: not given here.
Here the recorded IC50, Thiofiavin T aggregation assay is given for each entry.
// note: answer is a bare numeric in µM

Check out these entries, answers already filled in.
FFRLYLR = 13.4
TYVYRRR = 3.66
[dK][dL][dK][dW][dL][dW] [klkwlw] = 1.06
[dR][dF][dH][dR][dH][dH][dR] [rfhrhhr] = 30.9
[dR][dI][dH][dY][dF][dR][dR] [rihyfrr] = 0.043
LTRITLE = 1.68

Could you tell me which IC50, Thiofiavin T aggregation assay is on file for [dH][dQ][dR][dR][dY][dQ][dR] [hqrryqr] ?
39.1
